Test system: BT-549
protocolText: NCI tumour cell line growth inhibition, 48 h
Active and inactive are the calls of the source. Rule as the data show it: active = GI50 up to about 1.1 µM and inactive = higher.
valueType: GI50

molecule=COc1cc(S(=O)(=O)Nc2ccc(-c3csc(/N=C\c4ccccc4)n3)cc2)ccc1Cl valuetype=GI50 valuemeasured="41.4 µM (inactive)"
molecule=O=S(=O)(N/C(=N\O)Nc1ccc(Cl)cc1)c1cc(S(=O)(=O)c2ccccc2)cs1 valuetype=GI50 valuemeasured="15.5 µM (inactive)"
molecule=N#Cc1c(C#N)c(SSc2c(C#N)c(C#N)c(N)n2-c2ccc(F)cc2)n(-c2ccc(F)cc2)c1N valuetype=GI50 valuemeasured="2.88 µM (inactive)"
molecule=Cc1ccc(/N=N/C(=N\c2ccc(Cl)cc2)c2ccc(N(CCC#N)CCC#N)cc2)cc1 valuetype=GI50 valuemeasured="16.7 µM (inactive)"
molecule="CN1CCCC(OC(=O)c2cc3cc(CCl)ccc3oc2=O)C1 (stereo not given)" valuetype=GI50 valuemeasured="21 µM (inactive)"
molecule=O=C1c2c(ccc3c2CCCC3)CC12Cc1ccccc1C2 valuetype=GI50 valuemeasured="81.8 µM (inactive)"
molecule="O=C(O)C1C2OC(C(Br)C2Br)C1C(=O)O (stereo not given)" valuetype=GI50 valuemeasured="> 100 µM (inactive)"
molecule=O=C1C=CC(=O)c2c(O)c(N(CCCl)CCCl)c(Cl)c(O)c21 valuetype=GI50 valuemeasured="4.15 µM (inactive)"
molecule=Nc1cc(Cl)cc2cc(Cl)cnc12 valuetype=GI50 valuemeasured="> 100 µM (inactive)"
molecule="CC(C(=O)O)c1ccc(-n2nnc3c(=O)[nH][nH]c(=O)c32)cc1 (stereo not given)" valuetype=GI50 valuemeasured="> 100 µM (inactive)"

---

Test system: HCT-116
protocolText: NCI tumour cell line growth inhibition, 48 h
Activity calls are given as the source filed them. Cut-off read from the data, not from the text of the source: active = GI50 up to about 1.1 µM and inactive = higher.
GI50 values for the compounds below.
valueType: GI50

compound="CC(=O)OCCCC(NC(=O)OC(C)(C)C)C(=O)NC(CCCOC(C)=O)C(=O)NC(Cc1ccc([N+](=O)[O-])cc1)C(=O)NCC(=O)OCc1ccccc1 (centres undefined)" valuetype=GI50 valuemeasured="18.1 µM (inactive)"
compound="O=C1Nc2ccccc2/C1=C1/Nc2ccccc2/C1=N\\OCCNCC(O)C(O)C(O)C(O)CO (centres undefined)" valuetype=GI50 valuemeasured="13.4 µM (inactive)"
compound=CCOC(=O)/C=C(\C(=O)OCC)n1ccc(=O)n(Cc2cn(CCCCOC(C)=O)nn2)c1=O valuetype=GI50 valuemeasured="11.2 µM (inactive)"
compound=CN(C)CCNC(=O)c1cccc(N(C)C(=O)c2ccccc2)c1[N+](=O)[O-] valuetype=GI50 valuemeasured="> 100 µM (inactive)"
compound=CC[C@H]1C=CCC[C@@]2(C[C@@H]3CC[C@@H]4[C@H](C(=O)OCCCCCCCCCCCCCCCC(=O)N(CCCNC(C)=O)C[C@H](CCNC(C)=O)OC(C)=O)[C@]5(CCC[C@@H](C)O5)NC(=[N+]34)N2)O1 valuetype=GI50 valuemeasured="0.0405 µM (active)"
compound=COc1ccc(CNc2nc3cc(C(F)(F)F)ccc3nc2-c2ccccc2)cc1OC valuetype=GI50 valuemeasured="30.3 µM (inactive)"
compound=COc1ccc(CNc2nc3ccccc3nc2C(=O)O)cc1OC valuetype=GI50 valuemeasured="> 100 µM (inactive)"
compound="COC(=O)C1Cc2ccc(C)cc2C1=O (centres undefined)" valuetype=GI50 valuemeasured="> 100 µM (inactive)"
compound=Cc1cc(Cl)ccc1NC(=O)C(=O)Cc1nc2ccc(C(=O)c3ccccc3)cc2nc1O valuetype=GI50 valuemeasured="> 100 µM (inactive)"

---

System: SF-295
protocolText: NCI tumour cell line growth inhibition, 48 h
Activity calls are given as the source filed them. Cut-off read from the data, not from the text of the source: active = GI50 up to about 1.1 µM and inactive = higher.
valueType: GI50

compound=Cc1ccccc1-n1c(=O)c2ncn(CCCl)c2n(-c2ccccc2C)c1=S experimentaltarget=SF-295 valuetype=GI50 valuemeasured="> 100 µM (inactive)"
compound=CN(C1=NS(=O)(=O)N=C(N(C)c2ccccc2)O1)c1ccccc1 experimentaltarget=SF-295 valuetype=GI50 valuemeasured="21.8 µM (inactive)"
compound=Cc1cc(C)c2c(n1)S(=O)(=O)N(CCCN1CCN(c3cccc(C(F)(F)F)c3)CC1)C(C(=O)c1ccc(Cl)cc1)=C2O experimentaltarget=SF-295 valuetype=GI50 valuemeasured="3.29 µM (inactive)"
compound="N#Cc1nc(C(CO)N(Cc2ccccc2)C(=O)O)oc1N (stereo not given)" experimentaltarget=SF-295 valuetype=GI50 valuemeasured="> 100 µM (inactive)"
compound="CCC1(c2ccc(N)cc2)CCC(=O)NC1=O (stereo not given) [AMINOGLUTETHIMIDE]" experimentaltarget=SF-295 valuetype=GI50 valuemeasured="1880 µM (inactive)"

---

Quick list: GI50 per entry.
Test system: OVCAR-4
protocolText: NCI tumour cell line growth inhibition, 48 h
Active and inactive are the calls of the source. Rule as the data show it: active = GI50 up to about 1.1 µM and inactive = higher.
valueType: GI50

compound="[N-]=[N+]=NC1(c2ccccc2)C(=O)c2cccc3c2N(CCC3)C1=O (stereo not given)" valuetype=GI50 valuemeasured="55.8 µM (inactive)"
compound=O=C(CCC/C(CC(=O)c1ccc(Br)cc1)=N\O)Nc1ccccc1 valuetype=GI50 valuemeasured="76.9 µM (inactive)"
compound="CCC1(O)CC(CCN(Cc2ccccc2)C(=O)OCc2ccccc2)C(OCc2ccccc2)C1O (stereo not given)" valuetype=GI50 valuemeasured="7.66 µM (inactive)"
compound=N#Cc1ccc(OCc2nc3cc(C(F)(F)F)ccc3nc2-c2ccccc2)cc1 valuetype=GI50 valuemeasured="> 100 µM (inactive)"
compound=C[C@@H](c1ccccc1)N1CO[C@@]2(C#Cc3ccc4c(c3)OCO4)CCC[C@@H]12 valuetype=GI50 valuemeasured="13.8 µM (inactive)"
compound="NC(=O)N/N=C1\\CC2C3CC4C2C4C13 (stereo not given)" valuetype=GI50 valuemeasured="91 µM (inactive)"
compound="CN(C)CCNC(=O)c1cccc2c(NC(CCCNC(=N)N)C(=O)O)c3ccccc3[n+](C)c12 (stereo not given)" valuetype=GI50 valuemeasured="> 100 µM (inactive)"
compound="COC(=O)C1Cc2ccc(C)cc2C1=O (stereo not given)" valuetype=GI50 valuemeasured="> 100 µM (inactive)"
compound="CC(C)CCCCCCCCCCCCC(=O)NCC(=O)NC1C(C)OC(Nc2ncnc3c2ncn3C)C(O)C1O (stereo not given)" valuetype=GI50 valuemeasured="6.41 µM (inactive)"
compound=CC1(n2nc(-c3ccccc3)n(-c3ccccc3)c2=O)CSC1 valuetype=GI50 valuemeasured="> 100 µM (inactive)"

---

# key: entry, value: GI50
Tested on: MDA-MB-231
protocolText: NCI tumour cell line growth inhibition, 48 h
Active and inactive are the calls of the source. Cut-off read from the data, not from the text of the source: active = GI50 up to about 1.1 µM and inactive = higher.
valueType: GI50

molecule=CC[C@@H](/C=C\CCC1(C[C@H](O)CCC=C(C)C)OCCO1)O[Si](C(C)C)(C(C)C)C(C)C valuetype=GI50 valuemeasured="17.3 µM (inactive)"
molecule=CC(C)(C)n1c(=O)n(C(=O)C(Cl)(Cl)Cl)n(C(=O)C(Cl)(Cl)Cl)c1=O valuetype=GI50 valuemeasured="> 100 µM (inactive)"
molecule=COc1cccc(CCn2c(N)c(-c3ccccc3)c3ccc([N+](=O)[O-])cc3c2=O)c1 valuetype=GI50 valuemeasured="8.45 µM (inactive)"
molecule="C1CC[C@H]2SSC3CCCC[C@H]3SSC2C1 (stereo not given in full)" valuetype=GI50 valuemeasured="> 100 µM (inactive)"
molecule="N#CC1(C#N)C2=C(CCCC2)NC(c2ccc(Br)cc2)C1(C#N)C#N (stereo not given)" valuetype=GI50 valuemeasured="11.5 µM (inactive)"

---

System: IGROV-1
protocolText: NCI tumour cell line growth inhibition, 48 h
Activity calls are given as the source filed them. Rule as the data show it: active = GI50 up to about 1.1 µM and inactive = higher.
// reported GI50 for each item listed
valueType: GI50

compound=CCOc1ccccc1NC(=O)CCC(=O)NN valuemeasured="> 100 µM (inactive)"
compound="CC1OC2/C=C\\CC(O)C(C)(C)C3CCC(C)C4(O3)O[B-]35OC(C(=O)OC1C2)C1(OC(CCC1C)C(C)(C)C(O)C/C=C\\C1CC(OC(=O)C4O3)C(C)O1)O5 (configuration not stated)" valuemeasured="13.9 µM (inactive)"
compound=Cc1cc(N(CCC#N)CCC#N)ccc1/N=N/c1cccc(C(=O)O)c1 valuemeasured="> 100 µM (inactive)"
compound=O=C1c2ccccc2-c2c1c1ccccc1c(=O)n2-c1ccccc1 valuemeasured="13.8 µM (inactive)"
compound="Cc1ccc2c(c1C)CC1(Cc3c(ccc4c3CCC4)C1=O)C2=O (configuration not stated)" valuemeasured="> 100 µM (inactive)"
compound="CC(=O)NC(CCCCN(Cc1ccccc1)C(=O)N(CCCl)N=O)C(=O)NCc1ccccc1 (configuration not stated)" valuemeasured="39.7 µM (inactive)"
compound=O=C1c2c(ccc3c2CCCC3)CC12Cc1ccccc1C2 valuemeasured="30.2 µM (inactive)"
compound=CCOC(=O)c1nc2ccccc2nc1Nc1cc(OC)c(OC)c(OC)c1 valuemeasured="> 100 µM (inactive)"
compound="CCOC(=O)C1C(c2ccc(OC)cc2)c2c(n[nH]c2O)CC1(C)O (configuration not stated)" valuemeasured="> 100 µM (inactive)"
compound="COC(=O)C1Cc2ccc(C)cc2C1=O (configuration not stated)" valuemeasured="> 100 µM (inactive)"
compound=CC1=C(C(=O)NNC(=O)C(N)=O)CC(C(=O)NNC(=O)C(N)=O)=C(C)N1 valuemeasured="> 100 µM (inactive)"
compound="O=C1Nc2ccccc2/C1=C1/Nc2ccccc2/C1=N\\OCCNCC(O)C(O)C(O)C(O)CO (configuration not stated)" valuemeasured="6.62 µM (inactive)"
compound=OC(c1nc2ccccc2s1)(C(F)(F)F)C(F)(F)F valuemeasured="> 100 µM (inactive)"
compound=COc1ccc2c(c1)CCc1c(C(C)=O)c3ccccc3n1C2 valuemeasured="19.3 µM (inactive)"
compound=CCOC(=O)c1c(SCc2ccccc2)nc2c3ccccc3ccn12 valuemeasured="38.9 µM (inactive)"
compound=COc1ccc(S(=O)(=O)N/N=C/C(=O)O)cc1 valuemeasured="427 µM (inactive)"
compound=CN(C1=NS(=O)(=O)N=C(N(C)c2ccccc2)O1)c1ccccc1 valuemeasured="23.3 µM (inactive)"
compound="O=C(O)C(CS)Nc1c2ccccc2nc2ccccc12 (configuration not stated)" valuemeasured="> 100 µM (inactive)"
compound=CCOC(=O)C(C)(C)Oc1ccc(/C=C/C(=O)c2ccc(Cl)cc2)cc1 valuemeasured="17.3 µM (inactive)"
compound=C=C(Cl)COC(=O)Nc1cccc(Cl)c1 valuemeasured="26.7 µM (inactive)"
compound=CCOC(=O)c1ccc(C(=O)/C(C#N)=C2\CCCN2)[nH]1 valuemeasured="> 100 µM (inactive)"
compound=C/C(=N\N(C)C)c1sc(-n2nc(-c3ccccc3)cc2-c2ccccc2)nc1C valuemeasured="> 100 µM (inactive)"

Numbers sourced from ChEMBL document CHEMBL1201862.
